- assay: Pharmacokinetics in mice (plasma exposure after oral administration)
- Type: in vivo
- applied_conditions: mouse, ICR mice, oral (i.g.) 3 mg/kg, read-out: After oral administration of 3 mg/kg, mouse plasma exposure AUCinf
Reported AUC(0-inf) values are given for each entry in this list.
reported_metric: AUC(0-inf)

compound | result
CC(C)(c1ccc(CN2CC(Nc3ccc4c(c3)C(=O)N(C3CCC(=O)NC3=O)C4=O)C2)cc1)c1ccc(OCc2ccnc(N3CC4(COC4)C3)n2)cc1 (centres unmarked) | 1000 to 5000 ng·h/mL
Cc1nc(-c2cncc(Oc3ccc(C(C)(C)c4ccc(O[C@H]5C[C@@H](Nc6ccc7c(c6)C(=O)N(C6CCC(=O)NC6=O)C7=O)C5)cc4)cc3)n2)no1 (some centres unmarked) | 5000 to 30000 ng·h/mL
O=C1CCC(N2C(=O)c3ccc(N[C@H]4C[C@H](Oc5ccc(C6(c7ccc(OCc8ccnc(N9CC%10(COC%10)C9)n8)cc7)CCCC6)cc5)C4)cc3C2=O)C(=O)N1 (some centres unmarked) | 1000 to 5000 ng·h/mL
Cc1nnc(-c2nnc(Oc3ccc(C(C)(C)c4ccc(O[C@H]5C[C@H](Nc6ccc7c(c6)C(=O)N(C6CCC(=O)NC6=O)C7=O)C5)cc4)cc3)s2)o1 (some centres unmarked) | 5000 to 30000 ng·h/mL
COc1ncc2c(n1)CN(c1ccc(C(C)(C)c3ccc(OC4CC(Nc5ccc6c(c5)C(=O)N(C5CCC(=O)NC5=O)C6=O)C4)cc3)cc1)CC2 (centres unmarked) | 1000 to 5000 ng·h/mL

----------
- target_of_assay: androgen receptor (AR) splicing variant AR-v7 (Homo sapiens, UniProt P10275)
- Construct: The degradation activity of compounds on AR-v7 in 22RV1 cells; host or cells: 22RV1 cells
- Sequence (P10275 1-644 isoform P10275-3): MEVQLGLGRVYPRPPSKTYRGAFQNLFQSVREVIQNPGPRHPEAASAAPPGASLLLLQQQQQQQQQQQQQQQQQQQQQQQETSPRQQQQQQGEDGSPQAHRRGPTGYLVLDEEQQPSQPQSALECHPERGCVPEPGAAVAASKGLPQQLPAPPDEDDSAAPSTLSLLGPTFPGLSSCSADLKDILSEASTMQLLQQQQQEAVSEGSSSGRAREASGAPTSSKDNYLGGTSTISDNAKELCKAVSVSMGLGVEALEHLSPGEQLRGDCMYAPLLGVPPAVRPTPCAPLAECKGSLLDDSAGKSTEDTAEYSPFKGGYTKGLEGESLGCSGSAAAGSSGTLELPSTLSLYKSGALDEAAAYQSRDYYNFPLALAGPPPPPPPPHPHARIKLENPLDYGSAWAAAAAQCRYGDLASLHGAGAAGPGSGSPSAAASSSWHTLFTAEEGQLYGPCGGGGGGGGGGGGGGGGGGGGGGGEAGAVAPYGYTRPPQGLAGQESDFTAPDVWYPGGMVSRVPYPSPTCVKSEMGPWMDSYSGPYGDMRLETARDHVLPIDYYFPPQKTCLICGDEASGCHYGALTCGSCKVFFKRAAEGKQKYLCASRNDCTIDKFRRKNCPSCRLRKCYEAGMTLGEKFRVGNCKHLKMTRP
- assay: Degradation activity on androgen receptor splicing variant AR-v7 in 22RV1 cells (ELISA)
- Type: cell-based
- applied_conditions: AR-v7 degradation in 22RV1 cells, 48 h, class symbols
Reported DC50 values are given for each entry in this list.

molecule | target_of_assay | DC50
Cc1nc(-c2ccc(Oc3ccc(C(C)(C)c4ccc(O[C@H]5C[C@H](Nc6ccc7c(c6)C(=O)N(C6CCC(=O)NC6=O)C7=O)C5)cc4)cc3)nc2)no1 (stereo partly shown) | androgen receptor (AR) splicing variant AR-v7 (Homo sapiens, UniProt P10275) | 11 to 100 nM
CC(=O)c1ccc(Oc2ccc(C(C)(C)c3ccc(O[C@H]4C[C@H](Nc5ccc6c(c5)C(=O)N(C5CCC(=O)NC5=O)C6=O)C4)cc3)cc2)nn1 (stereo partly shown) | androgen receptor (AR) splicing variant AR-v7 (Homo sapiens, UniProt P10275) | < 10 nM
Cc1nc(-c2nccc(COc3ccc(C(C)(C)c4ccc(O[C@H]5C[C@H](Nc6ccc7c(c6)C(=O)N(C6CCC(=O)NC6=O)C7=O)C5)cc4)cc3)n2)no1 (stereo partly shown) | androgen receptor (AR) splicing variant AR-v7 (Homo sapiens, UniProt P10275) | < 10 nM
CC(C)[C@@H](COc1ccc(C(C)(C)c2ccc(OCc3ccnc(N4CC5(COC5)C4)n3)cc2)cc1)Nc1ccc2c(c1)C(=O)N(C1CCC(=O)NC1=O)C2=O (stereo partly shown) | androgen receptor (AR) splicing variant AR-v7 (Homo sapiens, UniProt P10275) | 11 to 100 nM
CC(=O)c1nccc(COc2ccc(C(C)(C)c3ccc(OCC4CN(c5ccc6c(c5)C(=O)N(C5CCC(=O)NC5=O)C6=O)C4)cc3)cc2)n1 (stereo not shown) | androgen receptor (AR) splicing variant AR-v7 (Homo sapiens, UniProt P10275) | 11 to 100 nM
Cc1nnc(-c2cnc(Oc3ccc(C(C)(C)c4ccc(O[C@H]5C[C@H](Nc6ccc7c(c6)C(=O)N(C6CCC(=O)NC6=O)C7=O)C5)cc4)cc3)nc2)o1 (stereo partly shown) | androgen receptor (AR) splicing variant AR-v7 (Homo sapiens, UniProt P10275) | 11 to 100 nM
CC(C)(c1ccc(CNc2ccc3c(c2)C(=O)N(C2CCC(=O)NC2=O)C3=O)cc1)c1ccc(OCc2ccnc(N3CC4(COC4)C3)n2)cc1 (stereo not shown) | androgen receptor (AR) splicing variant AR-v7 (Homo sapiens, UniProt P10275) | 11 to 100 nM
CC(C)(c1ccc(Oc2nccc(-n3nccn3)n2)cc1)c1ccc(O[C@H]2C[C@H](Nc3ccc4c(c3)C(=O)N(C3CCC(=O)NC3=O)C4=O)C2)cc1 (stereo partly shown) | androgen receptor (AR) splicing variant AR-v7 (Homo sapiens, UniProt P10275) | < 10 nM
Cc1nnc(-c2ncc(Oc3ccc(C4(c5ccc(O[C@H]6C[C@H](Nc7ccc8c(c7)C(=O)N(C7CCC(=O)NC7=O)C8=O)C6)cc5)CC4)cc3)cn2)o1 (stereo partly shown) | androgen receptor (AR) splicing variant AR-v7 (Homo sapiens, UniProt P10275) | 11 to 100 nM
CC1CN(c2nccc(COc3ccc(C(C)(C)c4ccc(OC5CC(Nc6ccc7c(c6)C(=O)N(C6CCC(=O)NC6=O)C7=O)C5)cc4)cc3)n2)CCN1C (stereo not shown) | androgen receptor (AR) splicing variant AR-v7 (Homo sapiens, UniProt P10275) | 11 to 100 nM
COc1ncc2c(n1)CN(c1ccc(C(C)(C)c3ccc(OC4CC(Nc5ccc6c(c5)C(=O)N(C5CCC(=O)NC5=O)C6=O)C4)cc3)cc1)CC2 (stereo not shown) | androgen receptor (AR) splicing variant AR-v7 (Homo sapiens, UniProt P10275) | < 10 nM
CC(=O)c1cnc(Oc2ccc(C(C)(C)c3ccc(O[C@H]4C[C@@H](Nc5ccc6c(c5)C(=O)N(C5CCC(=O)NC5=O)C6=O)C4)cc3)cc2)cn1 (stereo partly shown) | androgen receptor (AR) splicing variant AR-v7 (Homo sapiens, UniProt P10275) | < 10 nM
CN1CCN(c2ncc(COc3ccc(C(C)(C)c4ccc(OC5CC(Nc6ccc7c(c6)C(=O)N(C6CCC(=O)NC6=O)C7=O)C5)cc4)cc3)cn2)CC1 (stereo not shown) | androgen receptor (AR) splicing variant AR-v7 (Homo sapiens, UniProt P10275) | 11 to 100 nM
CC(C)(c1ccc(OCc2ccnc(N3CC4(COC4)C3)n2)cc1)c1ccc(O[C@H]2C[C@H](Nc3ccc4c(c3)C(=O)N(C3CCC(=O)NC3=O)C4=O)C2)cc1 (stereo partly shown) | androgen receptor (AR) splicing variant AR-v7 (Homo sapiens, UniProt P10275) | < 10 nM
CN(C)C(=O)c1noc(COc2ccc(C(C)(C)c3ccc(OCCCNc4cccc5c4C(=O)N(C4CCC(=O)NC4=O)C5=O)cc3)cc2)n1 (stereo not shown) | androgen receptor (AR) splicing variant AR-v7 (Homo sapiens, UniProt P10275) | 1000 to 5000 nM
CC(C)(c1ccc(Oc2cc(F)cnc2-n2ccnn2)cc1)c1ccc(O[C@H]2C[C@H](Nc3ccc4c(c3)C(=O)N(C3CCC(=O)NC3=O)C4=O)C2)cc1 (stereo partly shown) [Example 516] | androgen receptor (AR) splicing variant AR-v7 (Homo sapiens, UniProt P10275) | < 10 nM
CC(=O)c1ncc(Oc2ccc(C(C)(C)c3ccc(OC4CC(Nc5ccc6c(c5)C(=O)N(C5CCC(=O)NC5=O)C6=O)C4)cn3)cc2)cn1 (stereo not shown) | androgen receptor (AR) splicing variant AR-v7 (Homo sapiens, UniProt P10275) | < 10 nM
CCC(=O)c1ncc(Oc2ccc(C(C)(C)c3ccc(O[C@H]4C[C@H](Nc5ccc6c(c5)C(=O)N(C5CCC(=O)NC5=O)C6=O)C4)cc3)cc2)cn1 (stereo partly shown) | androgen receptor (AR) splicing variant AR-v7 (Homo sapiens, UniProt P10275) | < 10 nM
CC(C)(c1ccc(OCc2ccnc(N3CC4(COC4)C3)n2)cc1)c1ccc(OCC2(Nc3ccc4c(c3)C(=O)N(C3CCC(=O)NC3=O)C4=O)CCC2)cc1 (stereo not shown) | androgen receptor (AR) splicing variant AR-v7 (Homo sapiens, UniProt P10275) | 11 to 100 nM
CC(C)(c1ccc(OCc2ccnc(N3CCC[C@@H](O)C3)n2)cc1)c1ccc(O[C@H]2C[C@@H](Nc3ccc4c(c3)C(=O)N(C3CCC(=O)NC3=O)C4=O)C2)cc1 (stereo partly shown) | androgen receptor (AR) splicing variant AR-v7 (Homo sapiens, UniProt P10275) | < 10 nM
CC(C)(c1ccc(OCCCNc2ccc3c(c2)C(=O)N(C2CCC(=O)NC2=O)C3=O)cc1)c1ccc(OCc2ccnc(N3CCC4(CC3)COC4)n2)cc1 (stereo not shown) | androgen receptor (AR) splicing variant AR-v7 (Homo sapiens, UniProt P10275) | 11 to 100 nM
CC(C)(c1ccc(OCCCNc2ccc3c(c2)C(=O)N(C2CCC(=O)NC2=O)C3=O)cc1)c1ccc(OCc2ccnc(N3CCCC3)n2)cc1 (stereo not shown) | androgen receptor (AR) splicing variant AR-v7 (Homo sapiens, UniProt P10275) | 11 to 100 nM

Source: patent US20250051347A1
